Molecular target: MMP1 protein (pdb1cgl) (Homo sapiens, UniProt P03956)
Sequence (P03956 101-269 limits assumed): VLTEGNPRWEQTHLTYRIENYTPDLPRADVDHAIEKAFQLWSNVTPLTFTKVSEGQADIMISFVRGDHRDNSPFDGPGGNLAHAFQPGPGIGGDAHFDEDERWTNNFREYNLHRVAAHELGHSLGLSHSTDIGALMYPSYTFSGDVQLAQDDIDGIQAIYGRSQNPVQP
Experiment: Molecular docking (SYBYL-X 2.1.1, Surflex-Dock 2.7) of binding affinity to collagenase
Conditions: from Surflex-Dock total score
Procedure: Molecular modeling was conducted through a computer simulation program. Target structure: MMP1 protein (pdb1cgl) Software: SYBYL-X 2.1.1, Surflex-Dock2.7 Through a computer simulation program, a study was conducted on how to promote collagenase enzyme inhibitory activity and percutaneous absorption during peptide modification. […]
measured_attribute: binding affinity compared to 1cgl ligand (%)

>>> print(df.to_string())
                                   compound                                    system  experimental_result
0  CCCC(=O)C(CC(N)=O)NC(=O)C1CCCN1C(=O)CNC (stereo not shown)  MMP1 protein (pdb1cgl) (Homo sapiens, UniProt P03956)                 74.7
1  CCCC(=O)C(CC(N)=O)NC(=O)CNC(=O)C1CCCN1C (stereo not shown)  MMP1 protein (pdb1cgl) (Homo sapiens, UniProt P03956)                 90.1

###

Experiment: HaCaT cytotoxicity test (MTS cell viability)
Format: cell-based
Conditions: human, HaCaT cells (skin epidermal cells), 100 μg/ml
Attribute: viability at 24 h, 100 µg/mL
Dear colleague, please return just the value in %, with no unit written.

Solved cases below.
                                   compound  experimental_result
0  CCCCCCCCCCCCCCCC(=O)N1CCC[C@H]1C(=O)NCC(=O)N[C@@H](CC(N)=O)C(=O)O                  108
1  CN1CCC[C@H]1C(=O)NCC(=O)N[C@@H](CC(N)=O)C(=O)O                  126
2  NC(=O)C[C@H](NC(=O)CNC(=O)[C@@H]1CCCN1)C(=O)O [PGN, Pro-Gly-Asn, reference compound]                  128

Continue with the compound presented below.
Req: For the compound `CCCOC(=O)[C@H](CC(N)=O)NC(=O)CNC(=O)[C@@H]1CCCN1` , report viability at 24 h, 100 µg/mL.
Resp: 128

###

Assay: HS68 cytotoxicity test (MTS cell viability)
Format: cell-based
Details: human, HS68 cells (skin fibroblasts), HS68, 1 μg/ml
measured_attribute: viability at 24 h, 1 µg/mL (%)
// return numeric value only (unit: %, not printed)

Example entries begin here.
>>> print(df.to_string())
                                   compound  experimental_result
0  CCCCCCCCCCCCCCCC(=O)N1CCC[C@H]1C(=O)NCC(=O)N[C@@H](CC(N)=O)C(=O)O                  106
1  NC(=O)C[C@H](NC(=O)CNC(=O)[C@@H]1CCCN1)C(=O)O [PGN, Pro-Gly-Asn, reference compound]                  104
2  CN1CCC[C@H]1C(=O)NCC(=O)N[C@@H](CC(N)=O)C(=O)O                  103

Shifting focus to the compound that follows.
Req: Specify viability at 24 h, 1 µg/mL for `CCCOC(=O)[C@H](CC(N)=O)NC(=O)CNC(=O)[C@@H]1CCCN1` and stop.
Resp: 107

###

Reported viability at 24 h, 1 µg/mL values follow for various compounds
Experiment: HaCaT cytotoxicity test (MTS cell viability)
Assay type: cell-based
Conditions: human, HaCaT cells (skin epidermal cells), 1 μg/ml
Enter your answer as a number in %; do not include the unit.

                                   compound  u  experimental_result
0  CCCCCCCCCCCCCCCC(=O)N1CCC[C@H]1C(=O)NCC(=O)N[C@@H](CC(N)=O)C(=O)O [Pal-PGN]  %                  115
1  NC(=O)C[C@H](NC(=O)CNC(=O)[C@@H]1CCCN1)C(=O)O [PGN, Pro-Gly-Asn, reference compound]  %                  118
2  CCCOC(=O)[C@H](CC(N)=O)NC(=O)CNC(=O)[C@@H]1CCCN1 [PGN-OPr, PGN(Pro-Gly-Asn)-OPr]  %                  117

# input for lookup
Req: Name the recorded viability at 24 h, 1 µg/mL of the item CN1CCC[C@H]1C(=O)NCC(=O)N[C@@H](CC(N)=O)C(=O)O [Me-PGN] in your answer.
Resp: 125

###

Assay: HaCaT cytotoxicity test (MTS cell viability)
Format: cell-based
Conditions: human, HaCaT cells (skin epidermal cells), 10 μg/ml
measured_attribute: viability at 24 h, 10 µg/mL (%)
Express your answer in %, writing the number without its unit.

>>> print(df.to_string())
                                   molecule  experimental_result
0  CCCOC(=O)[C@H](CC(N)=O)NC(=O)CNC(=O)[C@@H]1CCCN1                  126

Req: // fetch viability at 24 h, 10 µg/mL given entry `CCCCCCCCCCCCCCCC(=O)N1CCC[C@H]1C(=O)NCC(=O)N[C@@H](CC(N)=O)C(=O)O`
Resp: 112

Req: Supply reported viability at 24 h, 10 µg/mL belonging to this molecule: `CN1CCC[C@H]1C(=O)NCC(=O)N[C@@H](CC(N)=O)C(=O)O`
Resp: 127

Req: Answer with the recorded viability at 24 h, 10 µg/mL of NC(=O)C[C@H](NC(=O)CNC(=O)[C@@H]1CCCN1)C(=O)O [PGN, Pro-Gly-Asn, reference compound] only.
Resp: 129

###

Assay: HS68 cytotoxicity test (MTS cell viability)
Format: cell-based
Details: human, HS68 cells (skin fibroblasts), HS68, 50 μg/ml
measured_attribute: viability at 24 h, 50 µg/mL (%)
Answer in %, number only, no unit symbol.

Req: Supply recorded viability at 24 h, 50 µg/mL for `CCCOC(=O)[C@H](CC(N)=O)NC(=O)CNC(=O)[C@@H]1CCCN1` here.
Resp: 115

Req: Please look at this compound and report its viability at 24 h, 50 µg/mL: NC(=O)C[C@H](NC(=O)CNC(=O)[C@@H]1CCCN1)C(=O)O [PGN, Pro-Gly-Asn, reference compound]
Resp: 128

Req: Provide measured viability at 24 h, 50 µg/mL value, entry: `CCCCCCCCCCCCCCCC(=O)N1CCC[C@H]1C(=O)NCC(=O)N[C@@H](CC(N)=O)C(=O)O`
Resp: 105

Attribution: patent US20230312643A1
